# method description: Inhibition of HIV1 His6-tagged integrase-recombinant flag-tagged LEDGF/p75 interaction at 100 uM after 1 hr by alphascreen assay
measured endpoint: inhibition (%)
Kindly answer with a numeric value in %, unit omitted.

**Query** Give recorded inhibition. Cc1ccc(Cn2cc(C(=O)C3=C(O)C(=O)OC3)c3c(O)cccc32)cc1
**Result** 81

**Query** Given Cc1ccc(Cn2cc(C(=O)C3=C(O)C(=O)OC3)c3c(O)cccc32)c(C)c1 , respond with its inhibition.
**Result** 96

More entries:
**Query** For the molecule Cc1cccc(Cn2cc(C(=O)C3=C(O)C(=O)OC3)c3c(O)cccc32)c1 , give its measured inhibition value.
**Result** 61
